System: MCF7-CR cisplatin-resistant breast cancer cells
Test Summary: MTT cytotoxicity assay, MCF7CR cells
Format: cell-based, human
Measurement Conditions: 72 h exposure, mean ± SD of three experiments
Value Kind: IC50 (µM)

Compound	Value Kind	Endpoint Unit	Result Qualifier	Reported Result
COc1cc(/C=C/c2cc(/C=C/c3ccc(O)c(OC)c3)n(-c3ccccn3)n2)ccc1O.Cc1ccc(C(C)C)cc1.[Cl-].[Cl][Ru+] [[1]Cl, [Ru(p-cym)(HZPcurc)Cl]Cl]	IC50	µM	=	41
Cc1ccc(C(C)C)cc1.Oc1ccc(/C=C/c2cc(/C=C/c3ccc(O)cc3)n(-c3ccccn3)n2)cc1.[Cl-].[Cl][Os+] [[4]Cl, [Os(p-cym)(HZPbdcurc)Cl]Cl]	IC50	µM	>	100
Cc1ccc(C(C)C)cc1.Oc1ccc(/C=C/c2cc(/C=C/c3ccc(O)cc3)n(-c3ccccn3)n2)cc1.[Cl-].[Cl][Ru+] [[3]Cl, [Ru(p-cym)(HZPbdcurc)Cl]Cl]	IC50	µM	=	31.9
N.N.[Cl][Pt][Cl] [Cisplatin, reference compound]	IC50	µM	=	49.1
COc1cc(/C=C/c2cc(/C=C/c3ccc(O)c(OC)c3)n(-c3ccccn3)n2)ccc1O.Cc1ccc(C(C)C)cc1.[Cl-].[Cl][Os+] [[2]Cl, [Os(p-cym)(HZPcurc)Cl]Cl]	IC50	µM	>	100
